Listed next: entries and their corresponding relative IC50.
# Test system: ZR-75-1
# test: relative IC50 (midpoint of fitted logistic curve, plateau may be below 50% inhibition; CellTiter-Glo viability); higher = less potent
# condition_set: 4-OH-tamoxifen in medium 1 µM; 72 h
Express the result in nM but write the number alone.

The reported relative IC50 of the molecule CC(C)C[C@H](NC(=O)[C@H](Cc1ccccc1)NC(=O)c1cnccn1)B(O)O [Bortezomib] was 31.4

The reported relative IC50 of the molecule CC(=O)[C@]1(O)Cc2c(O)c3c(c(O)c2[C@@H](O[C@H]2C[C@H](N)[C@H](O)[C@H](C)O2)C1)C(=O)c1ccccc1C3=O [Idarubicin] was 111

Where these numbers come from: the supplement of paper PMC4932681
